System: U2OS
Experiment: Multiplex assay against U2OS
Type: toxicity, cell-based
Conditions: human, 24 h, 1 µM, compound concentration 1 uM, replicate 1
Parameter threshold = 4%. Response is 1 when Population Membrane Permeable-Phenotype (%) meets or exceeds it, else -1.

Could you verify whether the entry "CC(=O)NCCc1c(Cc2ccccc2)[nH]c2ccccc12" shows Population Membrane Permeable-Phenotype (%) of no less than 4%?
-1

Could you verify whether the entry O=S(=O)(c1ccccc1)c1cnc2c(N3CCNCC3)cccc2c1 [INTEPIRDINE] shows Population Membrane Permeable-Phenotype (%) of no less than 4%?
1

Could you verify whether the entry "CN(C)c1ccnc2sc3c(=O)n(N4CCCCCC4)cnc3c12" shows Population Membrane Permeable-Phenotype (%) of no less than 4%?
-1

Could you verify whether the entry "Cc1ccc(F)cc1C(=O)Nc1ccc(C(=O)N2Cc3cccn3Cc3ccccc32)c(Cl)c1" shows Population Membrane Permeable-Phenotype (%) of no less than 4%?
1

Could you verify whether the entry "Cc1nc2ccc(Oc3ccc(F)cc3)cc2c(=O)n1C[C@H]1CCCN(C(C)C)C1.Cl" shows Population Membrane Permeable-Phenotype (%) of no less than 4%?
1

Could you verify whether the entry "O=C(NCCO)c1cccc(-c2cc(Nc3ccc(OC(F)(F)F)cc3)ncn2)c1" shows Population Membrane Permeable-Phenotype (%) of no less than 4%?
-1

Could you verify whether the entry "O=C1COc2nccc(-c3ccccc3F)c2CN1Cc1cc(C(F)(F)F)cc(C(F)(F)F)c1" shows Population Membrane Permeable-Phenotype (%) of no less than 4%?
1

----------
Assign Total Cell Count to each entry below.
System: U2OS
Assay: Multiplex assay against U2OS
Type: toxicity, cell-based
Conditions: human, 12 h, 10 µM, compound concentration 10 uM, replicate 2
Please give the numeric answer without any surrounding text.

Give the measured Total Cell Count of CNC[C@H](O)c1ccc(O)c(O)c1 [EPINEPHRINE] .
105

Give the measured Total Cell Count of Cc1ccc(C(C)(O)c2nc3ccccc3s2)c(C)c1 (centres undefined) .
89

Give the measured Total Cell Count of "CCNC1(C(N)=O)CCN(c2ncnc3c2nc(-c2ccccc2Cl)n3-c2ccc(Cl)cc2)CC1" .
112

Give the measured Total Cell Count of COc1ccc2c(c1)C(C(=O)N(Cc1ccc(N(C)C)cc1)c1ccc(C(C)C)cc1)CCC2.Cl (centres undefined) .
113

Give the measured Total Cell Count of "Oc1c(CN2CCN(c3ccccn3)CC2)cc(Cl)c2cccnc12" .
118

Give the measured Total Cell Count of "Cc1nc2ccc(Oc3ccc(F)cc3)cc2c(=O)n1C[C@H]1CCCN(C(C)C)C1.Cl" .
86

Give the measured Total Cell Count of "CN1CCN(c2nc3cc(C(F)(F)F)ccc3n3cccc23)CC1.O=C(O)/C=C\C(=O)O.O=C(O)/C=C\C(=O)O" .
135

Give the measured Total Cell Count of "CC[C@H]1OC(=O)[C@H](C)[C@@H](O[C@H]2C[C@@](C)(OC)[C@@H](O)[C@H](C)O2)[C@H](C)[C@@H](O[C@@H]2O[C@H](C)C[C@H](N(C)C)[C@H]2O)[C@@]2(C)CC(C)=C(O2)[C@H](C)[C@@H](O)[C@]1(C)O" .
128

Give the measured Total Cell Count of "CN(C)c1ccnc2sc3c(=O)n(N4CCCCCC4)cnc3c12" .
101

Give the measured Total Cell Count of "COc1c(C)cc(NC(=O)c2nn(Cc3ccc(F)cc3)c3c2CN(C(=O)c2ccc[nH]2)C[C@]3(C)C(N)=O)cc1C" .
119

Give the measured Total Cell Count of CCCN1CCC[C@@H]2Cc3n[nH]cc3C[C@H]21.Cl [QUINPIROLE HYDROCHLORIDE] .
126

Give the measured Total Cell Count of CSc1ccccc1N1CCN(CCCCCC(=O)NC2CCCc3ccccc32)CC1.Cl (centres undefined) .
125

Give the measured Total Cell Count of "CC(C)(C)c1ccc(S(=O)(=O)Nc2ccc(Cl)cc2C(=O)c2cc[n+]([O-])cc2)cc1" .
123

Give the measured Total Cell Count of "Cc1ccc(/C(=C\CN2CCCC2)c2ccccn2)cc1" .
114

Give the measured Total Cell Count of CN1CCN2c3ncccc3Cc3ccccc3C2C1 (centres undefined) .
83

Give the measured Total Cell Count of "c1cc(OCCCN2CCCCC2)ccc1CN1CCCCC1" .
120

Give the measured Total Cell Count of "COc1cc(C(=O)N(CCCc2ccccc2)Cc2ccc(CC(=O)O)cc2)cc(OC)c1C" .
171

Give the measured Total Cell Count of "Cc1ccc(F)cc1C(=O)Nc1ccc(C(=O)N2Cc3cccn3Cc3ccccc32)c(Cl)c1" .
119

Give the measured Total Cell Count of "CC(=O)NCCc1c(Cc2ccccc2)[nH]c2ccccc12" .
179
